Each entry below carries its reported TGI.
# Test system: HCT-15 colon
# protocolText: NCI tumour cell line growth inhibition, 48 h

Query: TGI; subject: COc1ccccc1/C=C(\NC(=O)c1ccccc1)c1nc2ccc(Cl)cc2[nH]1
> 100 µM

Query: TGI; subject: COc1ccc(O[C@H](CO)C[C@@H]2COC(C)(C)O2)cc1
> 100 µM

Query: TGI; subject: N=C(N)n1cc(/C=N/N=C(N)N)cn1
> 100 µM

Query: TGI; subject: CCN1C(=O)N(CC)C2C1NC(=S)N2/N=C/C=C/c1ccccc1 (configuration not stated)
> 100 µM

---

# Tested on: HCT-116 colon
# protocolText: NCI tumour cell line growth inhibition, 48 h
Parameter threshold = 10 µM. Response is met when TGI meets or exceeds it, else not met.

For orientation, consider the following solved cases.
{"compound": "CN1CCCc2nc3ccccc3n2C1", "targetSystem": "HCT-116 colon", "assignedCategory": "met"}
{"compound": "CCc1c(O)nc(Nc2nc3ccccc3[nH]2)[nH]c1=O", "targetSystem": "HCT-116 colon", "assignedCategory": "met"}
{"compound": "CCNC(=S)N/N=C(/C)c1cccc(/C(C)=N\\NC(=S)NCC)n1", "targetSystem": "HCT-116 colon", "assignedCategory": "met"}
{"compound": "NC1CCC2(O)c3ccccc3C2C1 (configuration not stated)", "targetSystem": "HCT-116 colon", "assignedCategory": "met"}
{"compound": "O=C(OCCN=c1c2ccccc2ccc2ccccc12)c1cc([N+](=O)[O-])cc([N+](=O)[O-])c1", "targetSystem": "HCT-116 colon", "assignedCategory": "met"}

Is TGI for Nc1ncnc2c1c(-c1ccc(Oc3ccccc3)cc1)nn2CC1SSCC1O (configuration not stated) at or above 10 µM?
not met

Is TGI for Nc1nc(Cl)c2ncn(Cc3ccc(C45CC6CC(CC(C6)C4)C5)c(OCc4cc(F)c(F)cc4F)c3)c2n1 at or above 10 µM?
not met

Is TGI for COc1cc2c(cc1O)C(Cc1ccc(OCc3ccccc3)c(OCc3ccccc3)c1)N(C(=O)NCCc1ccccc1)CC2 (configuration not stated) at or above 10 µM?
met

Is TGI for N#Cc1cc(F)cc(Oc2ccc(S(=O)(=O)C(F)F)c3c2CC(F)(F)[C@H]3O)c1 at or above 10 µM?
met

Is TGI for COc1ccc(-c2cnc(-c3ccncc3-c3cccc(OC)c3)o2)cc1 at or above 10 µM?
met

Is TGI for C/C(=N/NC(=S)Nc1ccc(C)cc1)c1ccccn1 at or above 10 µM?
met

Is TGI for COC(=O)C(Cc1ccccc1)NC(=O)C(CNC(=O)OCc1ccccc1)C(=O)OCc1ccccc1 (configuration not stated) at or above 10 µM?
met

Is TGI for O=C(O)c1ccccc1NCn1nc(-c2ccccc2O)oc1=S at or above 10 µM?
met

Is TGI for Cc1cc2nc(N3C(=O)/C(=C/Cc4ccco4)N=C3c3ccccc3)sc2cc1C at or above 10 µM?
met

Is TGI for O=c1[nH]ncc2[nH]c3c(c12)CCc1ccccc1-3 at or above 10 µM?
met

Is TGI for O=c1[nH]c2ccccc2cc1-c1nnc(Cc2ccccc2)o1 at or above 10 µM?
not met

Is TGI for COc1ccccc1N=Nc1c(O)ccc2ccccc12 at or above 10 µM?
met

---

# System: SF-539 CNS
# protocolText: NCI tumour cell line growth inhibition, 48 h
measurementName: TGI

Here's what some known entries look like.
{"molecule": "O=c1c2ccccc2nc(-c2cccc(Cl)c2)n1NC1OC(CO)C(O)C(O)C1O (stereo not given)", "TGI": "> 100 µM"}
{"molecule": "O=C1C2C(C(=O)N1Cc1ccccc1)N(Cc1ccccc1)C(=O)N2Cc1ccccc1 (stereo not given)", "TGI": "> 100 µM"}
{"molecule": "Cc1ccc(C(=O)Nc2ccc(CP(=O)(O)O)cc2CP(=O)(O)O)cc1N", "TGI": "> 100 µM"}
{"molecule": "Cn1c(CO)ccc1-c1ccc(-c2ccc(CO)[se]2)[se]1", "TGI": "> 100 µM"}
{"molecule": "Cc1cc(OC2OC(CO)C(O)C(O)C2O)ccc1O (stereo not given)", "TGI": "> 100 µM"}
{"molecule": "CCOC(=O)c1cn(C)c2c(OC)c3ccccc3c(OC)c2c1=O", "TGI": "> 100 µM"}
{"molecule": "COc1ccc(O[C@H](CO)C[C@@H]2COC(C)(C)O2)cc1", "TGI": "> 100 µM"}
{"molecule": "CCOC(=O)[C@@H](C)C[C@H](Cc1ccccc1)NC(=O)c1csc([C@@H](C[C@H](C(C)C)N(C)C(=O)CNC(=O)[C@H]2CCCCN2C)OC(C)=O)n1", "TGI": "5.46 µM"}

Please state recorded TGI (tested on SF-539 CNS) of Cc1cc(-c2ccc(N=Nc3ccc4c(S(=O)(=O)O)cc(S(=O)(=O)O)c(N)c4c3O)c(C)c2)ccc1N=Nc1ccc2c(S(=O)(=O)O)cc(S(=O)(=O)O)c(N)c2c1O
> 100 µM

Please state recorded TGI (tested on SF-539 CNS) of C[C@]12CCc3nc(Nc4ccc(O)cc4)sc3C1=CC[C@@H]1[C@@H]2CC[C@]2(C)/C(=N/NC(N)=S)CC[C@@H]12
3.09 µM

Please state recorded TGI (tested on SF-539 CNS) of CN(C)CCNC(=O)Nc1ccc(N(C)c2ccnc(Nc3ccc(CS(C)(=O)=O)cc3)n2)cc1
> 25 µM

Please state recorded TGI (tested on SF-539 CNS) of C#COc1cccc(Nc2ncnc3cc(NC(=O)[C@@H](C)Cl)ccc23)c1
46 µM

Please state recorded TGI (tested on SF-539 CNS) of COc1cc2c(c3c1c(=O)c1ccccc1n3C)C=C([N+](=O)[O-])C(C)(C)O2
> 100 µM

Please state recorded TGI (tested on SF-539 CNS) of Cn1cc(-c2ccc3ncc(-c4ccc(CC(=O)Nc5cc(C(C)(C)C)nn5C)cc4)cc3c2)cn1
> 20 µM

Please state recorded TGI (tested on SF-539 CNS) of C/C(=N\NC(=S)N1CCC1)c1ccccn1
5.31 µM

Please state recorded TGI (tested on SF-539 CNS) of CN1C(c2ccccc2)CC(O)CC1c1ccccc1 (stereo not given)
> 100 µM

Please state recorded TGI (tested on SF-539 CNS) of Cc1nc2ccncc2[nH]1
> 100 µM

Please state recorded TGI (tested on SF-539 CNS) of O=C(Nc1nc(=S)[nH][nH]1)C(=O)C(c1cnc2ccc([N+](=O)[O-])cc2n1)[N+](=O)[O-] (stereo not given)
> 100 µM

---

# System: OVCAR-8 ovarian
# protocolText: NCI tumour cell line growth inhibition, 48 h; in the data active means GI50 below about 0.43 µM; inactive means the rest
The reply should name one outcome from T (active), F (inactive)

{"smilesData": "COc1ccc(-c2cnc(-c3ccncc3-c3cccc(OC)c3)o2)cc1", "targetSystem": "OVCAR-8 ovarian", "assignedCategory": "T"}
{"smilesData": "COC(=O)[C@]12CC[C@@H](C)[C@H](C)[C@@H]1C1=CC[C@@H]3[C@@]4(C)C(C=O)=C[C@@](C)(COS(C)(=O)=O)C4=CC[C@@]3(C)[C@]1(C)CC2", "targetSystem": "OVCAR-8 ovarian", "assignedCategory": "T"}
{"smilesData": "O=C1c2cccc3c(N4CCOCC4)ccc(c23)C(=O)N1CCN1CCN(CCCCCN2CCN(CCN3C(=O)c4cccc5c(N6CCOCC6)ccc(c45)C3=O)CC2)CC1", "targetSystem": "OVCAR-8 ovarian", "assignedCategory": "F"}
{"smilesData": "CN(C)CCNC(=O)Nc1ccc(N(C)c2ccnc(Nc3ccc(CS(C)(=O)=O)cc3)n2)cc1", "targetSystem": "OVCAR-8 ovarian", "assignedCategory": "F"}
{"smilesData": "CCOC(=O)[C@@H](C)C[C@H](Cc1ccccc1)NC(=O)c1csc([C@@H](C[C@H](C(C)C)N(C)C(=O)CNC(=O)[C@H]2CCCCN2C)OC(C)=O)n1", "targetSystem": "OVCAR-8 ovarian", "assignedCategory": "F"}

Below: the item to evaluate.
Given O=C1Nc2ccc(-c3cccnc3)cc2/C1=C/c1cc(Br)c(O)c(Br)c1 , state the outcome it received in this test.
F

---

# Test system: 786-0 renal
# protocolText: NCI tumour cell line growth inhibition, 48 h
measurementName: TGI

Here's what some known entries look like.
{"compound": "O=[N+]([O-])/C=C/c1ccc2ccccc2c1", "targetSystem": "786-0 renal", "TGI": "> 20.4 µM"}
{"compound": "CCOC(=O)[C@@H](C)C[C@H](Cc1ccccc1)NC(=O)c1csc([C@@H](C[C@H](C(C)C)N(C)C(=O)CNC(=O)[C@H]2CCCCN2C)OC(C)=O)n1", "targetSystem": "786-0 renal", "TGI": "> 14.3 µM"}

Query: TGI; subject: CC(=O)C1(C(=O)C(=[N+]=[N-])S(=O)(=O)c2ccccc2)CC1
> 100 µM

Query: TGI; subject: Nc1nc(-c2ccccc2)c(CC(=O)O)s1
> 100 µM

Query: TGI; subject: O=C1OC(=O)c2c1nc1ccccc1c2-c1ccccc1
> 100 µM

Query: TGI; subject: N#Cc1c(-c2ccccc2)c(-c2ccccc2)cc2c(=O)c3ccc(Cl)cc3[nH]c12
> 100 µM

Query: TGI; subject: OCCNc1nc2ccccc2c2[nH]c3ccccc3c12
1.92 µM

Query: TGI; subject: Cc1ccc(S(=O)(=O)NC(=O)Nc2ccc(C(=O)O)cc2)cc1
> 100 µM

Query: TGI; subject: COc1cc2c(cc1OC)C1=C(C=O)c3ccc(OC)c(OC)c3C(O)N1CC2 (stereo not given)
> 100 µM

Query: TGI; subject: CCc1c(OC(C)=O)c2c(NC3OC(COC(C)=O)C(OC(C)=O)C(OC(C)=O)C3OC(C)=O)nc(SC)nc2oc1=O (stereo not given)
> 100 µM

Query: TGI; subject: Cn1cc(-c2ccc3ncc(-c4ccc(CC(=O)Nc5cc(C(C)(C)C)nn5C)cc4)cc3c2)cn1
> 20 µM

Query: TGI; subject: O=c1c2[nH]cnc2n(-c2ccccc2)c(=S)n1-c1ccccc1
> 100 µM

Query: TGI; subject: COc1cc2c(cc1O)C(Cc1ccc(OCc3ccccc3)c(OCc3ccccc3)c1)N(C(=O)NCCc1ccccc1)CC2 (stereo not given)
> 100 µM

Query: TGI; subject: Nc1c(C(=O)O)c2ccc([N+](=O)[O-])cc2c(=O)n1-c1nc2ccccc2s1
> 100 µM

Query: TGI; subject: COCc1cc2c(s1)C(=O)C1=C(C2=O)C2(C=C(Br)C(=O)C(Br)=C2)CCN1
16.3 µM

Query: TGI; subject: O=c1c2ccccc2nc(-c2cccc(Cl)c2)n1NC1OC(CO)C(O)C(O)C1O (stereo not given)
> 100 µM

Query: TGI; subject: COc1cc(C2c3cc4c(cc3[C@@H](Nc3ccc(F)cc3)C3COC[C@H]23)OCO4)cc(OC)c1O (stereo not given in full)
6.35 µM

Query: TGI; subject: CN(Cc1cnc2nc(N)nc(N)c2n1)c1ccc(C(=O)NC(CCC(=O)O)C(=O)O)c2ccccc12 (stereo not given)
> 1000 µM

Query: TGI; subject: Cc1ccc(C(=O)Nc2ccc(CP(=O)(O)O)cc2CP(=O)(O)O)cc1N
> 100 µM

Query: TGI; subject: COc1ccc(S(=O)(=O)NC(CCC(=O)NC(N)=O)C(=O)NC(N)=O)cc1 (stereo not given)
> 100 µM
